- TARGET_OR_SYSTEM: T1, Human ST2 (human, UniProt Q01638 19-328, limits assumed)
- T1 construct: also called human ST2 protein; Interleukin 1 receptor-like 1
- T1 sequence (looked up): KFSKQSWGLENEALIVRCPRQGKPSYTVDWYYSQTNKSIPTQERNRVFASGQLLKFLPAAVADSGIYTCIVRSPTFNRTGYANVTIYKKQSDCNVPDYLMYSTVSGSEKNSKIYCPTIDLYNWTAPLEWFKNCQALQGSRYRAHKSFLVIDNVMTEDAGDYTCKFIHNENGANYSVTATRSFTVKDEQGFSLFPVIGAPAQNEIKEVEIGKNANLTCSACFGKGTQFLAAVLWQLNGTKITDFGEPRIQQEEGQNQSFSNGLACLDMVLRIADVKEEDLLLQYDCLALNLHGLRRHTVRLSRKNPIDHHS
- PROTOCOL_DESCRIPTION: SPR (Carterra), antibody immobilized, ST2 analyte, 1:1
REPORTED_ENDPOINT: kon (M⁻¹ s⁻¹)
Output spec: scalar in M⁻¹ s⁻¹, unitless text.

These solved cases illustrate the format of a correct answer.
# BINDER, kon (M⁻¹ s⁻¹)
records = [
    ("Human ST2 IgG1 Antibody 101 (antibody, V domains shown, IgG1, kappa; also called ST2 Antibody 101) VH: QVQLVQSGAEVKKPGASVKVSCKASGYTFSTYDINWVRQAPGQGLEWVGIISPSGGWTTYAQKFQGRVTMTRDTSTSTVYMELSSLRSEDTAVYYCARVNYDILTGQGRGYYFDYWGQGTLVTVSS VL: DIQMTQSPSSLSASVGDRVTITCQATQDIADYLNWYQQKPGKAPKLLIYKASSLESGVPSRFSGSGSGTDFTLTISSLQPEDFATYYCQQSYSTPTFGPGTKVDIKR", 190000),
    ("Human ST2 IgG1 Antibody 107 (antibody, V domains shown, IgG1, kappa) VH: QVQLVQSGAQVKKPGASVKVSCKASGGTFSSYTISWVRQAPGQGLEWMGVIYPSGDITVYAQEFQGRVTMTRDTSTSTVYMELSSLRSEDTAVYYCARAWARYFDYWGQGTLVTVSS VL: DIQMTQSPSSLSASVGDRVTITCQASQDISNYLNWYQQKPGKAPKLLIYDASNLQAGVPSRFSGSGSGTDFTLTISSLQPEDFATYYCQQSYSSPITFGQGTRLEIKR", 130000),
]

Could you now look at the following binder, please?
Looking up Human ST2 IgG1 Antibody 104 (antibody, V domains shown, IgG1, kappa) VH: QVQLVQSGAEVKKPGSSVKVSCKASGYTFTNYAIIWVRQAPGQGLEWMGGIIPVFGTADYTQTFQGRVTITADESTSTAYMELSSLRSEDTAVYYCARVSTNYYDSSGYYAFDYWGQGTLVTVSS VL: DIQMTQSPSSLSASVGDRVTITCRASQSISSYLNWYQQKPGKAPKLLIYDASSLQSGVPSRFSGSGSGTDFTLTISSLQPEDFATYYCQQTYHTPWTFGQGTKVEIKR , I see its kon listed as 510000
